target: human serotonin 5-HT7 receptor subtype (Homo sapiens); construct: expressed in transfected cells; experiment: Binding affinity for 5-HT7 receptor ([3H]-5CT binding test); settings: [3H]-5CT 1 nM, membrane fraction of cells expressing human 5-HT7, 37° C. 30 minutes; Ki calculated from IC50
Sequence (P34969 whole entry): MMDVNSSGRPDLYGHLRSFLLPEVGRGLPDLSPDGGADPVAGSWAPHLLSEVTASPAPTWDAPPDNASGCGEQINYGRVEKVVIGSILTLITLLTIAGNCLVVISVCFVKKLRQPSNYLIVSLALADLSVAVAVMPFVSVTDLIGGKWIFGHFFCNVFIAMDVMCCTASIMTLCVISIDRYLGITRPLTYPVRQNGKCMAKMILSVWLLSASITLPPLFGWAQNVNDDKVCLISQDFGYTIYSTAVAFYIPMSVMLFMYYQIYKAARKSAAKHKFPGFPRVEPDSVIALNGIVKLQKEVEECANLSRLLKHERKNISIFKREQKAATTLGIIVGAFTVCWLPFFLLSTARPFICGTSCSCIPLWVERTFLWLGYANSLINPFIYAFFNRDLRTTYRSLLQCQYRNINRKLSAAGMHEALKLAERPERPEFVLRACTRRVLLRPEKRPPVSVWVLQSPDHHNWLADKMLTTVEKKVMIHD
Kindly state Ki for each of the entries shown.
# value in nM; strip the unit string

Problem: # returns recorded Ki (system: human serotonin 5-HT7 receptor subtype (Homo sapiens)) for O=C1Nc2cccc3c2C1(CCCCN1CCN(C2CCCc4cnccc42)CC1)CCC3 (stereo not drawn) [Compd. of Syn. Ex. 37d]
Solution: 8.8

Problem: Give human serotonin 5-HT7 receptor subtype (Homo sapiens) Ki for Cl.O=C1Nc2ccccc2N2CCN(CCCCC34CCCc5cccc(c53)NC4=O)CC12 (stereo not drawn) [Compd. of Syn. Ex. 13b, Hydrochloride]
Solution: 8

Problem: Can you look up Ki on human serotonin 5-HT7 receptor subtype (Homo sapiens) for COCn1c2c(c3ccccc31)CCN(CCCCC13CCCc4cccc(c41)NC3=O)C2 (stereo not drawn) [Compd. of Syn. Ex. 21a] ?
Solution: 13

Problem: # query: Ki | item CC(c1ccccc1)N1CCN(CCCCC23CCCc4cccc(c42)NC3=O)CC1 (stereo not drawn) [Compd. of Syn. Ex. 2e] | system: human serotonin 5-HT7 receptor subtype (Homo sapiens)
Solution: 30

Problem: Return Ki measured with human serotonin 5-HT7 receptor subtype (Homo sapiens) given this molecule: CN1C(=O)C2(CCCCN3CCc4ccccc4C3)CCCc3cccc1c32 (stereo not drawn) [Compd. of Syn. Ex. 14c]
Solution: 1.9

Problem: Return Ki measured with human serotonin 5-HT7 receptor subtype (Homo sapiens) given this molecule: O=C1Nc2cccc3c2C1(CCCCN1CCN2c4ccccc4OCC2C1)CCC3 (stereo not drawn) [Compd. of Syn. Ex. 1b]
Solution: 9

Problem: Short answer please: Ki, human serotonin 5-HT7 receptor subtype (Homo sapiens), entry O=C1Nc2cccc3c2C1(CCCCN1CCc2c([nH]c4ccccc24)C1)CCC3 (stereo not drawn) [Compd. of Syn. Ex. 1a]
Solution: 7

----------
molecular target: 5-HT2 receptor (Rattus norvegicus, UniProt P14842); construct: Rat cerebral cortex was homogenized; from tissue; host or cells: rat cerebral cortex, P2 membrane fraction; assay: Binding affinity for 5-HT2 receptor ([3H]ketanserin binding, rat cerebral cortex P2 fraction); details: [3H]ketanserin 1 nM, 37° C. 15 minutes, Ki calculated from IC50
Sequence (P14842 whole entry): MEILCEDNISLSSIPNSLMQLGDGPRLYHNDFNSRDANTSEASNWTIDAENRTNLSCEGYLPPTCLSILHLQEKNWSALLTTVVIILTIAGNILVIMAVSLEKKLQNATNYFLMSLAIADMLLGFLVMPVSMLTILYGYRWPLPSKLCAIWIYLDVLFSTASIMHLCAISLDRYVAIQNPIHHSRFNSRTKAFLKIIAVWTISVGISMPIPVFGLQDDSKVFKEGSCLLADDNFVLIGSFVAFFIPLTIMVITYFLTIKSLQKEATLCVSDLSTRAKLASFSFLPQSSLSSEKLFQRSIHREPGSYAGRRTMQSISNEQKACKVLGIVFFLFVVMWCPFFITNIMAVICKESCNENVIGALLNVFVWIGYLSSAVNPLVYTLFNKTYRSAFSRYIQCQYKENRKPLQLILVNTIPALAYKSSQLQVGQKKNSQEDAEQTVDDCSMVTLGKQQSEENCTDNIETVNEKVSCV
For each entry below, report its Ki value.
Answer format: numeric, nM implied, no suffix.

Problem: Which value of Ki has been reported for Cl.O=C1Nc2ccccc2N2CCN(CCCCC34CCCc5cccc(c53)NC4=O)CC12 (stereo not drawn) [Compd. of Syn. Ex. 13b, Hydrochloride] in the records?
Solution: 385

Problem: Item under review: O=C1Nc2cccc3c2C1(CCCCN1CCc2c([nH]c4ccccc24)C1)CCC3 (stereo not drawn) [Compd. of Syn. Ex. 1a] . Reported Ki?
Solution: 227

Problem: For CC(c1ccccc1)N1CCN(CCCCC23CCCc4cccc(c42)NC3=O)CC1 (stereo not drawn) [Compd. of Syn. Ex. 2e] , what is its reported Ki?
Solution: 456

Problem: Returns the measured Ki for the input compound. Input: COC(=O)n1c2c(c3ccccc31)CCN(CCCCC13CCCc4cccc(c41)NC3=O)C2 (stereo not drawn) [Compd. of Syn. Ex. 17a]
Solution: 807

Problem: State the recorded Ki for this entry: O=C1Nc2cccc3c2C1(CCCCN1CCN(C2CCCc4cnccc42)CC1)CCC3 (stereo not drawn) [Compd. of Syn. Ex. 37d]
Solution: 882
